# Tested on: Wnt stimulated TCF transcriptional activity, HEK293-TS 112 TCF reporter cell line
# assay_overview: Tankyrase 1 Assay (Example 119): Wnt3A-stimulated TOPbrite TCF luciferase reporter
# Type: cell-based
# run_conditions: Compounds I-59 to I-144, procedure in Example 119 (0.5 ug/mL Wnt3A, 16 hours); read-out: TNKS1 (IC50)
attribute_measured: log10 IC50 (log10 of the value in nM)
Hey, these are logged values: log10 of IC50, nM being the unit before logging.

# compound, quantitative_result
records = [
    ("Cn1ncc2c(=O)[nH]c(N3CCN(c4c(F)cc(CN5CCOCC5)cc4F)CC3)nc21 [Compound I-67]", 0.84),
    ("Cn1ncc2c(=O)[nH]c(N3CCN([C@H]4CC[C@@H](O)CC4)CC3)nc21 [Compound I-124]", 2.23),
    ("Cn1cncc1C1CCN(c2nc3c(cnn3C)c(=O)[nH]2)CC1 [Compound I-100]", 1.64),
    ("Cn1ncc2c(=O)[nH]c(-c3ccc(S(C)(=O)=O)cn3)nc21 [Compound I-139]", 2.74),
]

For each entry beneath this line, provide reported log10 IC50.
1. Cn1ncc2c(=O)[nH]c(N3CCN(C4CCN(C(=O)OC(C)(C)C)CC4)CC3)nc21 [Compound I-131]
2. Cn1ncc2c(=O)[nH]c(N3CCN([C@H]4CC[C@H](O)CC4)CC3)nc21 [Compound I-120]
3. CCn1ccc(C2(C)CCN(c3nc4c(cnn4C)c(=O)[nH]3)CC2)n1 [Compound I-92]

1: 2.50; 2: 2.18; 3: 1.39

Please go through the list and note log10 IC50 for each compound.
1. Cn1ncc2c(=O)[nH]c(N3CCN(c4c(F)cc(OC5CCOCC5)cc4F)CC3)nc21 [Compound I-76]
2. Cn1ncc2c(=O)[nH]c(-c3ccc(S(C)(=O)=O)cc3)nc21 [Compound I-102]
3. COC(C)c1cc(F)c(N2CCN(c3nc4c(cnn4C)c(=O)[nH]3)CC2)c(F)c1 (centres unmarked) [Compound I-71]
4. Cn1ncc2c(=O)[nH]c(N3CCN(S(C)(=O)=O)CC3)nc21 [Compound I-142]
5. Cn1cc(CN2CCN(c3nc4c(cnn4C)c(=O)[nH]3)CC2)cn1 [Compound I-134]
6. Cn1ncc2c(=O)[nH]c(N3CCC(c4ccncc4)CC3)nc21 [Compound I-109]

1.05
1.68
0.92
2.87
2.53
1.91

Dear colleague, could you please provide log10 IC50 for the compounds listed below?
1. Cn1ncc2c(=O)[nH]c(N3CCN(CC4CCOCC4)CC3)nc21 [Compound I-116]
2. Cn1ncc2c(=O)[nH]c(N3CCC(c4nc(-c5cnccn5)no4)CC3)nc21 [Compound I-106]
3. Cc1noc(C2(C)CCN(c3nc4c(cnn4C)c(=O)[nH]3)CC2)n1 [Compound I-91]
4. Cn1ncc2c(=O)[nH]c(N3CCN(c4c(F)cc(OCCOP(=O)(O)O)cc4F)CC3)nc21 [Compound I-75]

1. 2.05
2. 1.81
3. 1.38
4. 0.98
